- procedure.summary: Pharmacokinetic test in male SD rats
- Format: in vivo
- condition.context: rat, plasma, po, gavage, 10 mg/kg
Criterion: AUC strictly under 30 µg·h/mL. Met: t. Not met: f.

Would you please look over these solved cases?
- CC(C)[C@H]1C(=O)N(C2CC2)C(=O)N1c1cn2c(n1)-c1ccc(N3CCC[C@H]3C(N)=O)cc1OCC2: t
- CC(C)[C@@H]1C(=O)N(C2CC2)C(=O)N1c1cn2c(n1)-c1ccc(N3CCC[C@H]3C(N)=O)cc1OCC2: f
- CC(C)C1C(=O)N(C(C)C)C(=O)N1c1cn2c(n1)-c1ccc(N3CCC[C@H]3C(N)=O)cc1OCC2 (stereo partly drawn): t
- C[C@@H]1COC(=O)N1c1cn2c(n1)-c1ccc(N3CCC[C@H]3C(N)=O)cc1OCC2 [Control compound 1, reference compound]: t

Req: Please let me know if CC(C)C1C(=O)N(C2CC2)C(=O)N1c1cn2c(n1)-c1ccc(N3CCC[C@H]3C(N)=O)cc1OCC2 (stereo partly drawn) shows AUC below 30 µg·h/mL.
Resp: f

---

- tested.system: PI3Kα (Homo sapiens)
- Sequence (P42336 whole entry): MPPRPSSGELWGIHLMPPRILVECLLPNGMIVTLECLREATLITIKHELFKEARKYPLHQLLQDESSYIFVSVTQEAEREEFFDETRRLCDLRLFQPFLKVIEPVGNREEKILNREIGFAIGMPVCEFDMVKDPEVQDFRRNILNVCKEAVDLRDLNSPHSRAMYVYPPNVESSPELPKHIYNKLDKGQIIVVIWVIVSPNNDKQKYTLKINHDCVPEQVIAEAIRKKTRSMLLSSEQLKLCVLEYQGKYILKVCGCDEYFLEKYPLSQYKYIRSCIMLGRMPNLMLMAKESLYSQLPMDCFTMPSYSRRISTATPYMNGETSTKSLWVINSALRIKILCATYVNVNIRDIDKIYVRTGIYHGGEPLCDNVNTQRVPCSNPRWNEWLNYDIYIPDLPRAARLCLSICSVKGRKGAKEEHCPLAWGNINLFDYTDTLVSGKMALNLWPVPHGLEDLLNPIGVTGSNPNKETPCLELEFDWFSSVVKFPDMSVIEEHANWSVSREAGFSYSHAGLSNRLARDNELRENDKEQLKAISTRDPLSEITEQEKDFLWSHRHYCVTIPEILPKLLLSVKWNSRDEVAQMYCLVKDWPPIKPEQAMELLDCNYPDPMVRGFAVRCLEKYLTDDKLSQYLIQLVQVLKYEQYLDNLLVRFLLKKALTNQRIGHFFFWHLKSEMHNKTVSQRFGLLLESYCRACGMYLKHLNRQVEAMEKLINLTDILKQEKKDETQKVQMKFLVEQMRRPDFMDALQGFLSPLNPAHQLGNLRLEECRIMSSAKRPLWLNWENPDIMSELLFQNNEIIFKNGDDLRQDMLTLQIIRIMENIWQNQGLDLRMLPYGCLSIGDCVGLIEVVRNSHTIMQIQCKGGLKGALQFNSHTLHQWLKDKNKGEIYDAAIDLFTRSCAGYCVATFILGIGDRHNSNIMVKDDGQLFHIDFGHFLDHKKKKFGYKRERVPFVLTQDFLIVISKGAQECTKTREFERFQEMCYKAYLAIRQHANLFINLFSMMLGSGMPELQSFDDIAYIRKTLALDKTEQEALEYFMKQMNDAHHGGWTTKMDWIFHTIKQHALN
- Sequence (P27986 whole entry partner): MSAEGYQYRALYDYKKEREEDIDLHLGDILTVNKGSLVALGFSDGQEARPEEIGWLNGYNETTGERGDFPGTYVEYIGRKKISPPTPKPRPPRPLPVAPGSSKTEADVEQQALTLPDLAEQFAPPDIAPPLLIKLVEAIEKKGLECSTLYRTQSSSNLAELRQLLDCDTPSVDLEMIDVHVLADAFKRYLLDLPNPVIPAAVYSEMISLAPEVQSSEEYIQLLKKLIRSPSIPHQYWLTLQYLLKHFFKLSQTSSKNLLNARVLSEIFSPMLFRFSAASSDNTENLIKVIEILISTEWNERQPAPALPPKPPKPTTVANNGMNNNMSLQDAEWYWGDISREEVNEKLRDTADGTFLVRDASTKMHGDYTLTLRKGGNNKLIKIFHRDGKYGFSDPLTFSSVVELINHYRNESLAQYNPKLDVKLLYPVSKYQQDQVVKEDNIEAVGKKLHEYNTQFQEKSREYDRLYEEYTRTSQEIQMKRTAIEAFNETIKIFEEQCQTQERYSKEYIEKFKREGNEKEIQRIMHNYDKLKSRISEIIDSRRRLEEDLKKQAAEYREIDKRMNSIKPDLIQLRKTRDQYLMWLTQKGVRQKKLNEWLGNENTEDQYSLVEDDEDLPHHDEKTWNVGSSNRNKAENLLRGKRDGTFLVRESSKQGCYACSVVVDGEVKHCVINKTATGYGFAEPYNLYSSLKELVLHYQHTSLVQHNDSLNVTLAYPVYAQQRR
- procedure.summary: Kinase experiment (ADP-Glo, luminescence), PI3Kα
- Assay type: biochemical
- condition.context: final concentration of ATP 10 μM; read-out: IC50 of compound to PI3K (nM) α
Listed here: items and their measured IC50.

Req: Which IC50 value is on record for CC(C)C1C(=O)N(CC(F)(F)F)C(=O)N1c1cn2c(n1)-c1ccc(N3CCC[C@H]3C(N)=O)cc1OCC2 (stereo partly shown) ?
Resp: < 5 nM

Req: Queued: CC(C)C1C(=O)N(c2ccccc2)C(=O)N1c1cn2c(n1)-c1ccc(N3CCC[C@H]3C(N)=O)cc1OCC2 (stereo partly shown)
Resp: 5 to 20 nM

Req: Next: CC(C)[C@@H]1C(=O)N(C2CC2)C(=O)N1c1cn2c(n1)-c1ccc(N3CCC[C@H]3C(N)=O)cc1OCC2
Resp: < 5 nM

Req: Entry CC(C)C1C(=O)N(C2CCC2)C(=O)N1c1cn2c(n1)-c1ccc(N3CCC[C@H]3C(N)=O)cc1OCC2 (stereo partly shown) please
Resp: 5 to 20 nM

Req: Further, for CCN1C(=O)C(C(C)C)N(c2cn3c(n2)-c2ccc(N4CCC[C@H]4C(N)=O)cc2OCC3)C1=O (stereo partly shown) ?
Resp: 5 to 20 nM

Req: Same lookup for CC(C)C1C(=O)N(C)C(=O)N1c1cn2c(n1)-c1ccc(N3CCC[C@H]3C(N)=O)cc1OCC2 (stereo partly shown) , please.
Resp: < 5 nM

Req: Also, CC(C)C1C(=O)N(C2CC2)C(=O)N1c1cn2c(n1)-c1ccc(N3CCC[C@H]3C(N)=O)cc1OCC2 (stereo partly shown) please.
Resp: < 5 nM

---

- procedure.summary: Pharmacokinetic test in male SD rats
- Assay type: in vivo
- condition.context: rat, plasma, po, gavage, 10 mg/kg
reported.endpoint: Cmax
Record the result as number plus unit.

* CC(C)[C@@H]1C(=O)N(C2CC2)C(=O)N1c1cn2c(n1)-c1ccc(N3CCC[C@H]3C(N)=O)cc1OCC2 | 5030 ng/mL
* CC(C)[C@H]1C(=O)N(C2CC2)C(=O)N1c1cn2c(n1)-c1ccc(N3CCC[C@H]3C(N)=O)cc1OCC2 | 1600 ng/mL
* CC(C)C1C(=O)N(c2ccc(F)cc2)C(=O)N1c1cn2c(n1)-c1ccc(N3CCC[C@H]3C(N)=O)cc1OCC2 (stereo partly drawn) | 2690 ng/mL

Req: Can you look up the measured Cmax of C[C@@H]1COC(=O)N1c1cn2c(n1)-c1ccc(N3CCC[C@H]3C(N)=O)cc1OCC2 [Control compound 1, reference compound] for me?
Resp: 1960 ng/mL

Req: Try this compound too: CC(C)C1C(=O)N(C2CC2)C(=O)N1c1cn2c(n1)-c1ccc(N3CCC[C@H]3C(N)=O)cc1OCC2 (stereo partly drawn)
Resp: 4340 ng/mL

Req: Also, CC(C)C1C(=O)N(C(C)C)C(=O)N1c1cn2c(n1)-c1ccc(N3CCC[C@H]3C(N)=O)cc1OCC2 (stereo partly drawn) please.
Resp: 1830 ng/mL

---

- procedure.summary: Pharmacokinetic test in male SD rats
- Type: in vivo
- condition.context: rat, plasma, intravenous injection, 2 mg/kg
- Procedure: Method: 42 male SD rats, weight: 150-300 g. Divided into 7 groups randomly, with 6 rats in each group. […] The protein of the resultant plasma was precipitated by acetonitrile, the supernatant was extracted, and mixed with water at the ratio of 1:1, took 10 μL of which for LC-MS/MS detection, and calculated the average was calculated.
reported.endpoint: clearance (mL/min/kg)
Please respond with the number in mL/min/kg and leave the unit unwritten.

Req: clearance for CC(C)C1C(=O)N(C(C)C)C(=O)N1c1cn2c(n1)-c1ccc(N3CCC[C@H]3C(N)=O)cc1OCC2 (stereo partly drawn) ?
Resp: 8.76

Req: Now the molecule CC(C)C1C(=O)N(C2CC2)C(=O)N1c1cn2c(n1)-c1ccc(N3CCC[C@H]3C(N)=O)cc1OCC2 (stereo partly drawn)
Resp: 1.98

---

Listed next: entries and their corresponding IC50.
- tested.system: PI3Kα (Homo sapiens)
- procedure.summary: Kinase experiment (ADP-Glo, luminescence), PI3Kα
- Assay type: biochemical
- condition.context: final concentration of ATP 10 μM; read-out: IC50 of compound to PI3K (nM) α

Solved cases below.
• CN1C(=O)C(C2CC2)N(c2cn3c(n2)-c2ccc(N4CCC[C@H]4C(N)=O)cc2OCC3)C1=O (stereo partly shown) = 5 to 20 nM
• CC(C)C1C(=O)N(c2ccc(F)cc2)C(=O)N1c1cn2c(n1)-c1ccc(N3CCC[C@H]3C(N)=O)cc1OCC2 (stereo partly shown) = 5 to 20 nM

Req: What value of measured IC50 is listed for CC(C)[C@H]1C(=O)N(C2CC2)C(=O)N1c1cn2c(n1)-c1ccc(N3CCC[C@H]3C(N)=O)cc1OCC2 ?
Resp: < 5 nM

Req: Another compound: CC(C)C1C(=O)N(C(C)C)C(=O)N1c1cn2c(n1)-c1ccc(N3CCC[C@H]3C(N)=O)cc1OCC2 (stereo partly shown)
Resp: < 5 nM

---

Some compounds, each annotated with its measured clearance.
- procedure.summary: Pharmacokinetic test in male SD rats
- Type: in vivo
- condition.context: rat, plasma, intravenous injection, 2 mg/kg
Record the value in mL/min/kg, omitting the unit from your answer.

* C[C@@H]1COC(=O)N1c1cn2c(n1)-c1ccc(N3CCC[C@H]3C(N)=O)cc1OCC2 [Control compound 1, reference compound] | 16.6
* CC(C)[C@H]1C(=O)N(C2CC2)C(=O)N1c1cn2c(n1)-c1ccc(N3CCC[C@H]3C(N)=O)cc1OCC2 | 11.1
* CC(C)C1C(=O)N(c2ccc(F)cc2)C(=O)N1c1cn2c(n1)-c1ccc(N3CCC[C@H]3C(N)=O)cc1OCC2 (stereo partly shown) | 4.75

Next compound, clearance to be filled in.
Req: If you can, please state the reported clearance value of CC(C)[C@@H]1C(=O)N(C2CC2)C(=O)N1c1cn2c(n1)-c1ccc(N3CCC[C@H]3C(N)=O)cc1OCC2 .
Resp: 1.5
